Where do these numbers come from? They come from patent US4837226A.

System: cultured rat cortical neurons
Assay: Inhibition of glutamate stimulated [45Ca] influx (GCI) into cultured rat cortical neurons
Type: cell-based
Settings: Cortical neurone; cultured rat cortical neurons; glutamate stimulated
METRIC: pIC50
Reminder that pIC50 is minus the log10 of a molar concentration.

Indicate its recorded pIC50; the compound in question is C[C@]12N[C@H](Cc3ccccc31)c1ccccc12 [MK-801, reference compound]
7.29

Indicate its recorded pIC50; the compound in question is CNC12CCCCC1Sc1ccccc12 (centres unmarked) [Example 30]
6.59

Indicate its recorded pIC50; the compound in question is c1ccc(C2(N3CCCCC3)CCCCC2)cc1 [PCP, phencyclidene, reference compound]
6.80

Indicate its recorded pIC50; the compound in question is CNC12CC(C)CCC1Cc1ccccc12 (centres unmarked) [Example 12]
5.72

Indicate its recorded pIC50; the compound in question is CCNC12CCCCC1Oc1ccccc12 (centres unmarked) [Example 27]
5.74

Indicate its recorded pIC50; the compound in question is COCCCNC12CCCCC1Cc1ccccc12 (centres unmarked) [Example 8]
5.72

Indicate its recorded pIC50; the compound in question is CNC1(c2ccccc2Cl)CCCCC1=O (centres unmarked) [ketamine, reference compound]
5.26

Indicate its recorded pIC50; the compound in question is CNC12CCCCC1Cc1ccccc12 (centres unmarked) [Example 2]
6.52

====

Answer each item with its documented pIC50.
Molecular target: phencyclidene (PCP) receptors
Assay: [3H]TCP receptor binding (RBS1), rat brain cortex membranes
Conditions: [3H]TCP; rat brain cortex membranes; read-out: Inhibition of [^3 H]TCP Receptor Binding, RBS1 IC50
Reminder that pIC50 is minus the log10 of a molar concentration.

// fetch pIC50; item: CNC12CC(C)CCC1Cc1ccccc12 (stereo not shown) [Example 12] ; system: phencyclidene (PCP) receptors
7.02

// fetch pIC50; item: COCCCNC12CCCCC1Cc1ccccc12 (stereo not shown) [Example 8] ; system: phencyclidene (PCP) receptors
6.99

// fetch pIC50; item: NC12CCCCC1Cc1ccccc12 (stereo not shown) [Example 1] ; system: phencyclidene (PCP) receptors
7.57

// fetch pIC50; item: CCNC12CCCCC1Oc1ccccc12 (stereo not shown) [Example 27] ; system: phencyclidene (PCP) receptors
6.85

// fetch pIC50; item: CNC12CCCCC1Cc1ccccc12 (stereo not shown) [Example 2] ; system: phencyclidene (PCP) receptors
7.82

// fetch pIC50; item: CNC12CCCCC1Sc1ccccc12 (stereo not shown) [Example 30] ; system: phencyclidene (PCP) receptors
8.00

// fetch pIC50; item: c1ccc(C2(N3CCCCC3)CCCCC2)cc1 [PCP, phencyclidene, reference compound] ; system: phencyclidene (PCP) receptors
7.40
